Where these numbers come from: the supplement of paper PMC11061612

- Tested on: NCI-H1793 (Lung Adenocarcinoma)
- ASSAY COMMENT: combination Emax (second highest fraction inhibited in the dose matrix, 72 h); higher = more inhibition; extreme values may be limits of the assay
Catalogue of combination Emax values
Give only the figure.

CN(C)CCCOc1ccc(-c2ccc3ncc4c(c3c2)n(C2CCOCC2)c(=O)n4C)cn1 [AZD0156] + C[C@@H]1COCCN1C2=NC(=NC(=C2)C3(CC3)[S@](=N)(=O)C)C4=C5C=CNC5=NC=C4 [AZD6738] (first compound max 1 µM, 7x7, partner max 10 µM) :: 0.455
COc1cccc(OCCCN)c1-c1cc(Nc2cnc(C#N)cn2)n[nH]1 [Prexasertib] + CCc1c2c(nc3ccc(O)cc13)-c1cc3c(c(=O)n1C2)COC(=O)[C@]3(O)CC [SN-38] (first compound max 1 µM, 7x7, partner max 0.3 µM) :: 0.769
CN(C)CCCOc1ccc(-c2ccc3ncc4c(c3c2)n(C2CCOCC2)c(=O)n4C)cn1 [AZD0156] + O=C(c1cc(Cc2n[nH]c(=O)c3ccccc23)ccc1F)N1CCN(C(=O)C2CC2)CC1 [Olaparib] (first compound max 3 µM, partner max 3 µM) :: 0.496

Task item: Given the molecule CC1(C)CCC(CN2CCN(c3ccc(C(=O)NS(=O)(=O)c4ccc(NCC5CCOCC5)c([N+](=O)[O-])c4)c(Oc4cnc5[nH]ccc5c4)c3)CC2)=C(c2ccc(Cl)cc2)C1 [Venetoclax] + CCN(CCO)CCCOc1ccc2c(Nc3cc(CC(=O)Nc4cccc(F)c4)[nH]n3)ncnc2c1 [AZD2811] (first compound max 1 µM, 7x7, partner max 1 µM) , what is its reported combination Emax?
Reply: 0.234
